- TGT: human AspH (His6-AspH315–758) (Homo sapiens, UniProt Q12797)
- Construct: N-Terminally His6-tagged human AspH315–758 (His6-AspH315–758) was produced in Escherichia coli BL21 (DE3) cells; made in house; host or cells: Escherichia coli BL21 (DE3), pET-28a(+) vector
- Sequence (Q12797 315-758): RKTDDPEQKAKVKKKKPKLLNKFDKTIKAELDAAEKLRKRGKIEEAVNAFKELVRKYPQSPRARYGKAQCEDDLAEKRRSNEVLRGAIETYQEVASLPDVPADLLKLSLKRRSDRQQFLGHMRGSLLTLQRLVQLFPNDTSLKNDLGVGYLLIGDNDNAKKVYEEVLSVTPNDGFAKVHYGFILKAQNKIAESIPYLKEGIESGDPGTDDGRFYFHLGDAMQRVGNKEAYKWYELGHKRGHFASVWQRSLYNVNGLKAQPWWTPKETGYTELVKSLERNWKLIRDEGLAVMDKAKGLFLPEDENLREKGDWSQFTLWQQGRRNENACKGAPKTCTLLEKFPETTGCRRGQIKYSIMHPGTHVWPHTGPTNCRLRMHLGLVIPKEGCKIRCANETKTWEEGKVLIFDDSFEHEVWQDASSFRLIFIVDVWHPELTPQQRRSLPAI
- METHOD_NOTES: SPE-MS AspH inhibition assay (hFX-CP101-119 substrate hydroxylation)
- Type: biochemical
- CONDITIONS_USED: AspH-inhibitor screening, 384-well Plate 1
QUANTITY_NAME: Plate 1 (% inhibition) (%)

Please review the entries below; each comes with its answer.
>  <STRUCTURE>
Cc1ccc(-c2cc(C(F)(F)F)nn2-c2ccc(S(N)(=O)=O)cc2)cc1

>  <OUTPUT_UNIT>
%

>  <Plate 1 (% inhibition)>
-8.28

$$$$
>  <STRUCTURE>
C=CC(=O)N1CCC[C@@H](n2nc(-c3ccc(Oc4ccccc4)cc3)c3c(N)ncnc32)C1

>  <OUTPUT_UNIT>
%

>  <Plate 1 (% inhibition)>
0.65

$$$$

1. C[C@@H]1CCN(C(=O)CC#N)C[C@@H]1N(C)c1ncnc2[nH]ccc12
2. Nc1nc(OCc2cc(Br)cs2)c2[nH]cnc2n1
Task item: Compare the recorded Plate 1 (% inhibition) of 1 and 2 ; state which is larger. Please respond with the label that marks your chosen entry.
Reply: 1
